Hey, just so you know, these numbers are from patent US9499550B2.

System: HCV genotype 1b (Con1) replicon in HUH-7 cells
Test: HCV replicon luciferase reporter assay, genotype 1b
Type: cell-based
Conditions: Hepatitis C virus, Huh-7, 72 h, HCV genotype 1b replicon luciferase, 3 days incubation, read-out: LE_1b (EC50, range)
metricName: EC50

Some entries whose results are on file:
C[C@H]1CC/C=C\[C@@H]2C[C@@]2(C(=O)NS(=O)(=O)C2(C)CC2)NC(=O)[C@@H]2C[C@@H](Oc3nccc4c5c(ccc34)N(C)CCO5)CN2C(=O)[C@@H](NC(=O)c2ccc(N(C)C)cc2)[C@H](C)C1 : < 5.46 nM
CC[C@@H]1C[C@H](C)CC/C=C\[C@@H]2C[C@@]2(C(=O)NS(=O)(=O)C2(CF)CC2)NC(=O)[C@@H]2C[C@@H](Oc3nc4c(c5ccccc35)CCCO4)CN2C(=O)[C@H]1NC(=O)OC(C)(C)C(F)(F)F : 0.51 to 1 nM
CC(C)Oc1cnc(O[C@@H]2C[C@H]3C(=O)N[C@]4(C(=O)NS(=O)(=O)C5CC5)C[C@H]4/C=C\CC[C@@H](C)C[C@@H](C)[C@H](NC(=O)OC(C)(C)C(F)(F)F)C(=O)N3C2)c2cccc(Cl)c12 : < 5.46 nM
C[C@@H]1CC/C=C\[C@@H]2C[C@@]2(C(=O)NS(=O)(=O)C2(CF)CC2)NC(=O)[C@@H]2C[C@@H](Oc3cnc4ccccc4n3)CN2C(=O)[C@@H](NC(=O)OC(C)(C)C)[C@H](C)C1 : 4.82 to 103 nM
[2H]C([2H])([2H])C(OC(=O)N[C@@H]1C(=O)N2C[C@H](Oc3nccc4cc(OC)ccc34)CC2C(=O)N[C@]2(C(=O)NS(=O)(=O)C3(C)CC3)C[C@H]2/C=C\CC[C@@H](C)C[C@H]1C)(C([2H])([2H])[2H])C(F)(F)F (stereo partly drawn) : < 5.46 nM

For each listed entry, give its EC50.
1. COc1cc2ccnc(O[C@@H]3C[C@H]4C(=O)N[C@]5(C(=O)NS(=O)(=O)C6(C)CC6)C[C@H]5/C=C\CC[C@@H](C)C[C@@H](C)[C@H](NC(=O)OC(C)(C)C(F)(F)F)C(=O)N4C3)c2cc1OC
2. CCn1nc(O[C@@H]2C[C@H]3C(=O)N[C@]4(C(=O)NS(=O)(=O)C5CC5)C[C@H]4/C=C\CC[C@H](C)C[C@@H](C)[C@H](NC(=O)OC(C)(C)C(F)(F)F)C(=O)N3C2)c2ccccc2c1=O

Solution:
["0.51 to 1 nM", "> 87.4 nM"]

Items follow; give EC50 for each.
1. CC[C@@H]1C[C@@H](C)CC/C=C\[C@@H]2C[C@@]2(C(=O)NS(=O)(=O)C2CC2)NC(=O)[C@@H]2C[C@@H](Oc3nccc4c5c(ccc34)N(C)CCO5)CN2C(=O)[C@H]1NC(=O)OC(C)(C)C(F)(F)F
2. CC[C@@H]1C[C@H](C)CC/C=C\[C@@H]2C[C@@]2(C(=O)NS(=O)(=O)C2(C)CC2)NC(=O)[C@@H]2C[C@@H](Oc3ncc(OC)c4ccc(F)cc34)CN2C(=O)[C@H]1NC(=O)C1(C(F)(F)F)CC1

Solution:
1. < 5.46 nM
2. 0.51 to 1 nM
